Data origin: patent US7803803B2

- measured-target: cathepsin K (Homo sapiens, UniProt P43235)
- Sequence (P43235 115-329): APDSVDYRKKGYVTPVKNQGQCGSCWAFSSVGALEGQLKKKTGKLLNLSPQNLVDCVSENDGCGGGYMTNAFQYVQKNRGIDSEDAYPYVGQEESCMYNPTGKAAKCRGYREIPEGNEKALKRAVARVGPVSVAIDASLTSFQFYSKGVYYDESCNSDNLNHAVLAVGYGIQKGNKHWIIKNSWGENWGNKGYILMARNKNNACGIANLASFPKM
- assay-comment: In vitro cathepsin Ki inhibition measurements
- Type: biochemical
- Design: purchased B. Turk, Josef Stefan Institute, Ljubljana, Slovenia
- measurement-parameters: human recombinant cathepsin K; read-out: In vitro Ki (nM) vs Cath K
assay-readout: Ki (nM)

INSERT INTO results (compound, value_unit, observed_measurement) VALUES
  ('CO[C@H]1CN(C(=O)[C@H](CC(C)C)NC(=O)c2ccc(N3CCN(C)CC3)cc2)[C@@H]2C(=O)CO[C@H]12 [Example 1]', 'nM', 5.6),
  ('COCCN1CCN(c2ccc(C(=O)N[C@@H](CC(C)C)C(=O)N3C[C@@H](O)[C@H]4OCC(=O)[C@H]43)cc2)CC1 [Example 26]', 'nM', 8.1),
  ('COCCN1CCN(c2ccc(C(=O)N[C@@H](CC(C)C)C(=O)N3C[C@H](N)[C@H]4OCC(=O)[C@H]43)cc2)CC1 [Example 23]', 'nM', 11.2),
  ('CCCN1CCN(c2ccc(C(=O)N[C@@H](CC(C)C)C(=O)N3C[C@H](OC)[C@H]4OCC(=O)[C@H]43)cc2)CC1 [Example 13]', 'nM', 3.9),
  ('CCN1CCN(c2ccc(C(=O)N[C@H](C(=O)N3C[C@H](OC)[C@H]4OCC(=O)[C@H]43)C3CCCC3)cc2)CC1', 'nM', 3.6),
  ('CCCN1CCC(c2ccc(C(=O)N[C@@H](CC(C)(C)C)C(=O)N3C[C@@H](OC)[C@H]4OCC(=O)[C@H]43)cc2)CC1 [Example 38]', 'nM', 8.2),
  ('CCCN1CCN(c2ccc(C(=O)N[C@@H](CC(C)(C)C)C(=O)N3C[C@H](OC)[C@H]4OCC(=O)[C@H]43)cc2)CC1 [Example 14]', 'nM', 8.6);

====

- assay-comment: LogD determinations
- Format: physicochemical
- measurement-parameters: 1-octanol/phosphate buffered saline, pH 7.4, pH 7.4; Ion-count method
assay-readout: logD at 1 h

INSERT INTO results (compound, observed_measurement) VALUES
  ('CO[C@@H]1CN(C(=O)[C@H](CC(C)(C)C)NC(=O)c2ccc(N3CCN(C(C)C)CC3)cc2)[C@@H]2C(=O)CO[C@@H]21 [Example 22]', '> 0.8'),
  ('CO[C@H]1CN(C(=O)[C@H](CC(C)(C)C)NC(=O)c2ccc(N3CCN(C)CC3)cc2)[C@@H]2C(=O)CO[C@H]12 [Example 2]', '> 0.8'),
  ('CO[C@@H]1CN(C(=O)[C@@H](NC(=O)c2ccc(N3CCN(C)CC3)cc2)C2CCCC2)[C@@H]2C(=O)CO[C@@H]21', 0.75),
  ('CO[C@@H]1CN(C(=O)[C@H](CC(C)(C)C)NC(=O)c2ccc(N3CCN(C)CC3)cc2)[C@@H]2C(=O)CO[C@@H]21 [Example 4]', '> 0.8'),
  ('COCCN1CCN(c2ccc(C(=O)N[C@@H](CC(C)C)C(=O)N3C[C@H](OC)[C@H]4OCC(=O)[C@H]43)cc2)CC1 [Example 27]', '> 0.8'),
  ('CCCN1CCC(c2ccc(C(=O)N[C@@H](CC(C)(C)C)C(=O)N3C[C@@H](OC)[C@H]4OCC(=O)[C@H]43)cc2)CC1 [Example 38]', '> 0.8'),
  ('CCN1CCN(c2ccc(C(=O)N[C@@H](CC(C)C)C(=O)N3C[C@H](OC)[C@H]4OCC(=O)[C@H]43)cc2)CC1 [Example 5]', '> 0.8'),
  ('CCCN1CCN(c2ccc(C(=O)N[C@@H](CC(C)C)C(=O)N3C[C@@H](OC)[C@H]4OCC(=O)[C@H]43)cc2)CC1 [Example 15]', '> 0.8'),
  ('CO[C@H]1CN(C(=O)[C@H](CC(C)C)NC(=O)c2ccc(N3CCN(C)CC3)cc2)[C@@H]2C(=O)CO[C@H]12 [Example 1]', '> 0.8'),
  ('CCN1CCN(c2ccc(C(=O)N[C@@H](CC(C)(C)C)C(=O)N3C[C@H](OC)[C@H]4OCC(=O)[C@H]43)cc2)CC1 [Example 6]', '> 0.8'),
  ('CCN1CCN(c2ccc(C(=O)N[C@H](C(=O)N3C[C@@H](OC)[C@H]4OCC(=O)[C@H]43)C3CCCC3)cc2)CC1', 0.95);

====

- assay-comment: Plasma incubations (human plasma stability); note: tested at 25 µM
- Type: in vitro ADME
- measurement-parameters: 37° C.
Listed below: Human Plasma Stability % rem. @ 1 h values for each entry.
assay-readout: Human Plasma Stability % rem. @ 1 h

INSERT INTO results (compound, observed_measurement) VALUES
  ('COCCN1CCN(c2ccc(C(=O)N[C@@H](CC(C)C)C(=O)N3C[C@@H](N)[C@H]4OCC(=O)[C@H]43)cc2)CC1 [Example 24]', '96%'),
  ('CO[C@H]1CN(C(=O)[C@@H](NC(=O)c2ccc(N3CCN(C)CC3)cc2)C2CCCC2)[C@@H]2C(=O)CO[C@H]12', '93.6%'),
  ('CO[C@@H]1CN(C(=O)[C@@H](NC(=O)c2ccc(N3CCN(C)CC3)cc2)C2CCCC2)[C@@H]2C(=O)CO[C@@H]21', '91.8%'),
  ('CCN1CCN(c2ccc(C(=O)N[C@H](C(=O)N3C[C@@H](OC)[C@H]4OCC(=O)[C@H]43)C3CCCC3)cc2)CC1', '90.7%'),
  ('CO[C@@H]1CN(C(=O)[C@H](CC(C)C)NC(=O)c2ccc(N3CCN(C)CC3)cc2)[C@@H]2C(=O)CO[C@@H]21 [Example 3]', '87%'),
  ('COCCN1CCN(c2ccc(C(=O)N[C@@H](CC(C)C)C(=O)N3C[C@@H](OC)[C@H]4OCC(=O)[C@H]43)cc2)CC1 [Example 28]', '88%'),
  ('CO[C@H]1CN(C(=O)[C@H](CC(C)(C)C)NC(=O)c2ccc(N3CCN(C)CC3)cc2)[C@@H]2C(=O)CO[C@H]12 [Example 2]', '93%');

====

- assay-comment: LogD determinations
- Assay type: physicochemical
- measurement-parameters: 1-octanol/phosphate buffered saline, pH 7.4, pH 7.4; Ion-count method
assay-readout: logD at 1 h

INSERT INTO measurements (compound, modifier, observed_measurement) VALUES
  ('CC(C)C[C@H](NC(=O)c1ccc(C(C)(C)C)cc1)C(=O)N1CC[C@H]2OCC(=O)[C@H]21 [reference compound]', '=', 1.36),
  ('CCN1CCN(c2ccc(C(=O)N[C@@H](CC(C)C)C(=O)N3C[C@@H](OC)[C@H]4OCC(=O)[C@H]43)cc2)CC1', '>', 0.8),
  ('CO[C@H]1CN(C(=O)[C@@H](NC(=O)c2ccc(N3CCN(C)CC3)cc2)C2CCCC2)[C@@H]2C(=O)CO[C@H]12', '=', 1.36),
  ('CCN1CCN(c2ccc(C(=O)N[C@H](C(=O)N3C[C@H](OC)[C@H]4OCC(=O)[C@H]43)C3CCCC3)cc2)CC1', '=', 1.59),
  ('CCN1CCN(c2ccc(C(=O)N[C@@H](CC(C)(C)C)C(=O)N3C[C@@H](OC)[C@H]4OCC(=O)[C@H]43)cc2)CC1', '>', 0.8),
  ('CC(C)C[C@H](NC(=O)c1ccc(N2CCN(C)CC2)cc1)C(=O)N1CC[C@H]2OCC(=O)[C@H]21 [reference compound]', '=', 0.56);

====

- measured-target: cathepsin K (Homo sapiens, UniProt P43235)
- assay-comment: In vitro cathepsin Ki inhibition measurements
- Assay type: biochemical
- Parameters: purchased B. Turk, Josef Stefan Institute, Ljubljana, Slovenia
- measurement-parameters: human recombinant cathepsin K; read-out: In vitro Ki (nM) vs Cath K
assay-readout: Ki (nM)

INSERT INTO results (molecule, value_unit, observed_measurement) VALUES
  ('COCCN1CCN(c2ccc(C(=O)N[C@@H](CC(C)C)C(=O)N3C[C@@H](OC)[C@H]4OCC(=O)[C@H]43)cc2)CC1 [Example 28]', 'nM', 14.4),
  ('CO[C@@H]1CN(C(=O)[C@@H](NC(=O)c2ccc(N3CCN(C)CC3)cc2)C2CCCC2)[C@@H]2C(=O)CO[C@@H]21', 'nM', 4.9),
  ('CO[C@@H]1CN(C(=O)[C@H](CC(C)(C)C)NC(=O)c2ccc(N3CCN(C(C)C)CC3)cc2)[C@@H]2C(=O)CO[C@@H]21 [Example 22]', 'nM', 8.4),
  ('CCCN1CCN(c2ccc(C(=O)N[C@@H](CC(C)(C)C)C(=O)N3C[C@@H](OC)[C@H]4OCC(=O)[C@H]43)cc2)CC1 [Example 16]', 'nM', 3.7);

====

Listed below: Ki values for each entry.
- measured-target: cathepsin K (Homo sapiens, UniProt P43235)
- assay-comment: In vitro cathepsin Ki inhibition measurements
- Format: biochemical
- Parameters: purchased B. Turk, Josef Stefan Institute, Ljubljana, Slovenia
- measurement-parameters: human recombinant cathepsin K; read-out: In vitro Ki (nM) vs Cath K
assay-readout: Ki (nM)

INSERT INTO assay_data (compound, assay_readout, value_unit, observed_measurement) VALUES
  ('CCN1CCN(c2ccc(C(=O)N[C@@H](CC(C)C)C(=O)N3C[C@H](OC)[C@H]4OCC(=O)[C@H]43)cc2)CC1 [Example 5]', 'Ki', 'nM', 5.8),
  ('CCN1CCN(c2ccc(C(=O)N[C@@H](CC(C)C)C(=O)N3C[C@@H](OC)[C@H]4OCC(=O)[C@H]43)cc2)CC1 [Example 7]', 'Ki', 'nM', 9.9),
  ('CCN1CCN(c2ccc(C(=O)N[C@H](C(=O)N3C[C@@H](OC)[C@H]4OCC(=O)[C@H]43)C3CCCC3)cc2)CC1', 'Ki', 'nM', 3.4),
  ('CCN1CCN(c2ccc(C(=O)N[C@@H](CC(C)(C)C)C(=O)N3C[C@@H](OC)[C@H]4OCC(=O)[C@H]43)cc2)CC1 [Example 8]', 'Ki', 'nM', 9.2);
